Hey, just so you know, these numbers are from patent US12281121B2.

List of log10 GI50 values.
Test system: Ba/F3 CCDC6-RET (WT) cells
Assay: Cell proliferation inhibition, CellTiter-Glo
Assay type: cell-based
Conditions: BaF3/CCDC6-RET, 72 hours
The figures below represent log10 of GI50, where GI50 is stated in nM.

Cc1cc(Nc2nc(-c3ccc(N4CC5CC(C4)N5Cc4ccc(OC(C)C)nc4)nc3)nc3ccccc23)n[nH]1 1.88
Cc1csc(CN2C3CC2CN(c2ccc(-c4nc(Nc5cc(C)[nH]n5)c5ccccc5n4)cn2)C3)n1 2.08
COc1ccc(CN2CCN(c3ccc(-c4nc(Nc5cc(C)[nH]n5)c5ccccc5n4)cn3)CC23CC3)cn1 2.48
Cc1cc(Nc2nc(-c3ccc(N4CC5CC(C4)N5Cc4ccc(N(C)C)nc4)nc3)nc3ccccc23)n[nH]1 1.64
COc1ccc(CN2C[C@H]3C[C@@H]2CN3c2ccc(-c3nc(Nc4cc(C)[nH]n4)c4ccccc4n3)cn2)cn1 1.81
Cc1cc(Nc2nc(-c3ccc(N4CC5CC(C4)N5Cc4ccc(F)nc4)nc3)nc3ccccc23)n[nH]1 1.76
COc1ccc(CN2CCN(c3ccc(-c4nc(Nc5cc(C)[nH]n5)c5ccccc5n4)cn3)CC2(C)C)cn1 2.66
COc1ccc(CN2C3CC2CN(c2ccc(-c4nc(Nc5cc(C)[nH]n5)c5ccccc5n4)cn2)C3)cc1 1.52
COc1ccc(CN2C[C@@H]3C[C@H]2CN3c2ccc(-c3nc(Nc4cc(C)[nH]n4)c4ccccc4n3)cn2)cn1 1.82
COc1ccc(CN2CCN(c3ccc(-c4nc(Nc5cc(C)[nH]n5)c5ccccc5n4)cn3)C[C@H]2C)cn1 2.41

stdin: Find the measured log10 GI50 of COc1ccc(CN2C3CC2CN(c2ccc(-c4nc(Nc5cc(C)[nH]n5)c5occc5n4)cn2)C3)cn1 and report it.
stdout: 1.77

stdin: Input Cc1ncc(CN2C3CC2CN(c2ccc(-c4nc(Nc5cc(C)[nH]n5)c5ccccc5n4)cn2)C3)cn1 , output reported log10 GI50.
stdout: 1.70

stdin: Quickly give me recorded log10 GI50 for COc1ccc(CN2CC3CC(C2)N3c2ccc(-c3nc(Nc4cc(C)[nH]n4)c4ccccc4n3)cn2)cn1
stdout: 2.22

stdin: Quick one: give measured log10 GI50 for COc1cnc(CN2C3CC2CN(c2ccc(-c4nc(Nc5cc(C)[nH]n5)c5ccccc5n4)cn2)C3)cn1
stdout: 1.66

stdin: Answer with the recorded log10 GI50 of CCOc1ccc(CN2C3CC2CN(c2ccc(-c4nc(Nc5cc(C)[nH]n5)c5ccccc5n4)cn2)C3)cn1 only.
stdout: 1.72

stdin: # return recorded log10 GI50 for input COc1ccc(CN2CCCN(c3ccc(-c4nc(Nc5cc(C)[nH]n5)c5ccccc5n4)cn3)CC2)cn1
stdout: 2.00

stdin: Report measured log10 GI50; entry is Cc1cc(Nc2nc(-c3ccc(N4CC5CC(C4)N5Cc4ccc(F)cc4)nc3)nc3ccccc23)n[nH]1
stdout: 1.74

----------
Target: RET (WT) (Homo sapiens, UniProt P07949)
Construct: human RET (658-end, SIGNALCHEM); purchased SIGNALCHEM
Sequence (P07949 658-1114 limits assumed): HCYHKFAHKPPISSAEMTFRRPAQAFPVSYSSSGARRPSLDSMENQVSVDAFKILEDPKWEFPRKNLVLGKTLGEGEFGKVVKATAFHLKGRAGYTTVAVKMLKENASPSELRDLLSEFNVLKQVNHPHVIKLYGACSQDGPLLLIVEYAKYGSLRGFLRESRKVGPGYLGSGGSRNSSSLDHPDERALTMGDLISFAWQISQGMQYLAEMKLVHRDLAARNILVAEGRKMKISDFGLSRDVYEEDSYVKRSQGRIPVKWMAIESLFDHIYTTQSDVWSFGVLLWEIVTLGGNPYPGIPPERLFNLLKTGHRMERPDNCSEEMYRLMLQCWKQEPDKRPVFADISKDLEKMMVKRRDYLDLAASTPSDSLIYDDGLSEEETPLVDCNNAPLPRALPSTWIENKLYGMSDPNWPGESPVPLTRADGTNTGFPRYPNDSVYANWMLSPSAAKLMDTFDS
Experiment: RET enzyme inhibitory ability, ADP-Glo kinase assay
Type: biochemical
Conditions: ATP 10 μM, 25° C., 1 hour
Quick rule for you: IC50 under 30 nM gets y, anything else gets n.

COMPOUND	ASSIGNED LABEL
COc1ccc(CN2CC3CC(C2)N3c2ccc(-c3nc(Nc4cc(C)[nH]n4)c4ccccc4n3)cn2)cn1 [Example 6]	y

stdin: Dear reviewer, please state whether Cc1csc(CN2C3CC2CN(c2ccc(-c4nc(Nc5cc(C)[nH]n5)c5ccccc5n4)cn2)C3)n1 [Example 19] has IC50 strictly beneath 30 nM.
stdout: n

stdin: Field: below-cutoff. Rule: recorded IC50 strictly less than 30 nM. Subject: Cc1cc(Nc2nc(-c3ccc(N4CC5CC(C4)N5Cc4ccc(F)cc4)nc3)nc3ccccc23)n[nH]1 [Example 22]
stdout: y

stdin: Input Cc1cc(Nc2nc(-c3ccc(N4CC5CC(C4)N5Cc4ccc(N(C)C)nc4)nc3)nc3ccccc23)n[nH]1 [Example 20] ; condition: IC50 strictly below 30 nM. Does it hold?
stdout: y

stdin: In plain terms, does COc1ccc(CN2C3CC2CN(c2ccc(-c4nc(Nc5cc(C)[nH]n5)c5ccccc5n4)cn2)C3)cn1 [Example 3] come in under 30 nM for IC50?
stdout: y

stdin: # TODO verify IC50 < 30 nM strictly for this compound: Cc1cc(Nc2nc(-c3ccc(N4CC5CC(C4)N5Cc4ccc(OC(C)C)nc4)nc3)nc3ccccc23)n[nH]1 [Example 15]
stdout: n
